For each record, write down the corresponding protein stability index.
B1: INTS4 (parent)
chain: TIIEPAGESDNPLRFTSGLVVALD

# Variants of: B1
# Test Protocol: protein stability index of a GFP-peptide fusion (GPS, HEK-293T) (PSI 1-6); higher = more stable;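 further: lentivirally expressed fusions sorted by FACS into six bins by GFP to DsRed ratio, PSI derived from sequencing read proportions per bin multiplied by bin number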
# Condition Notes: c terminus: a fixed tail appended

Query string: Fill blank: measured protein stability index of the variant `T1Q` is ____.
Result string: 2.96

Query string: Fill blank: measured protein stability index of the variant `G18N` is ____.
Result string: 2.99

Query string: Fill blank: measured protein stability index of the variant `I2H` is ____.
Result string: 3.18

Query string: Fill blank: measured protein stability index of the variant `S9L` is ____.
Result string: 2.38

Query string: Fill blank: measured protein stability index of the variant `I3V` is ____.
Result string: 4.2

Query string: Fill blank: measured protein stability index of the variant `L23F` is ____.
Result string: 2.75

Query string: Fill blank: measured protein stability index of the variant `I2W` is ____.
Result string: 2.38

Query string: Fill blank: measured protein stability index of the variant `G18T` is ____.
Result string: 2.51

Query string: Fill blank: measured protein stability index of the variant `L19K` is ____.
Result string: 4.27

Query string: Fill blank: measured protein stability index of the variant `I3Y` is ____.
Result string: 3.29

Query string: Fill blank: measured protein stability index of the variant `D24P` is ____.
Result string: 2.31
